Kindly supply the reported IC50 values for the records listed here.
Tested Target: JAK3 (Homo sapiens)
Construct: 5 μl of catalytic domain recombinant Kinase enzyme+Tyr peptide substrate (Invitrogen, Calif.)
Sequence (P52333 822-1111 limits assumed): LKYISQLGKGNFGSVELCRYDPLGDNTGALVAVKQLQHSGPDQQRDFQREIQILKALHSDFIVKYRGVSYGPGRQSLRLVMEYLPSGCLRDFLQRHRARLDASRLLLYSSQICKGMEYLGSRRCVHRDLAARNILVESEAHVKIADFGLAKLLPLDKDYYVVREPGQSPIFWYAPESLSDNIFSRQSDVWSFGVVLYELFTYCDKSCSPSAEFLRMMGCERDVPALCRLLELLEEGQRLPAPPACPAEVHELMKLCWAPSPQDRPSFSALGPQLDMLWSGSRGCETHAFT
Method: Z'-LYTE kinase assay, JAK3 tyrosine phosphorylation activity

>>> print(df.to_string())
                                   compound   assay_value
0  CC(=O)Nc1cc(Nc2ncc(C(N)=O)c(NCc3ccccc3)n2)ccc1OCCN1CCCC1        < 1 nM
1  CC[C@H](C)Nc1nc(Nc2ccc(Cl)c(NC(=O)N3CCCC3)c2)ncc1C(N)=O  10 to 100 nM
2  CC(=O)N(C)c1cccc(Nc2ncc(C(N)=O)c(NC(C)C)n2)c1  10 to 100 nM
3  CNC(=O)Nc1cc(Nc2ncc(C(N)=O)c(NCC3CC3)n2)ccc1Cl  10 to 100 nM

Provide each entry's IC50 from the list below.
1. COC(CNc1nc(Nc2cccc(NC(C)=O)c2)ncc1C(N)=O)c1ccccc1 (stereo not shown)
2. CC(=O)Nc1cccc(Nc2ncc(C(N)=O)c(NCC3CCCNC3)n2)c1 (stereo not shown)
3. NC(=O)c1cnc(Nc2cccc(NC(=O)[C@@H]3CCCO3)c2)nc1NCc1cccc(F)c1

1 to 10 nM
10 to 100 nM
1 to 10 nM

Provide each entry's IC50 from the list below.
1. NC(=O)c1cnc(Nc2ccc(Cl)c(NC(=O)N3CCCC3)c2)nc1NCC1CC1
2. CC(=O)Nc1cccc(Nc2ncc(C(N)=O)c(NCc3ccncc3)n2)c1
3. CNC(=O)Nc1cc(Nc2ncc(C(N)=O)c(N[C@H](C)c3ccccc3)n2)ccc1Cl
4. CC(=O)Nc1cccc(Nc2cc(NCC(C)C)c(C(N)=O)cn2)c1
5. CC(=O)Nc1cccc(Nc2ncc(C(N)=O)c(NCc3ccc(C)cc3)n2)c1
6. CC(=O)Nc1cccc(Nc2ncc(C(N)=O)c(NCC(F)(F)F)n2)c1

1. 10 to 100 nM
2. 10 to 100 nM
3. 10 to 100 nM
4. 10 to 100 nM
5. 10 to 100 nM
6. 1 to 10 nM

Provide each entry's IC50 from the list below.
1. CC(=O)Nc1cccc(Nc2ncc(C(N)=O)c(N(C)Cc3ccccc3)n2)c1
2. CC(=O)Nc1cccc(Nc2ncc(C(N)=O)c(N[C@@H](C)C(C)C)n2)c1
3. NC(=O)c1cnc(Nc2cccc(NC(=O)N3CCCC3)c2)cc1N[C@H](CO)c1ccccc1
4. COCC(=O)Nc1cc(Nc2ncc(C(N)=O)c(N[C@H](C)c3ccccc3)n2)ccc1Cl
5. COC(=O)Nc1cccc(Nc2ncc(C(N)=O)c(NC3CCCC3)n2)c1

100 to 1000 nM
10 to 100 nM
1 to 10 nM
10 to 100 nM
1 to 10 nM

Provide each entry's IC50 from the list below.
1. NC(=O)c1cnc(Nc2ccc(Cl)c(NC(=O)N3CCCC3)c2)nc1NC1CCCC1
2. COCC(=O)Nc1cccc(Nc2ncc(C(N)=O)c(NCc3ccc(Cl)cc3)n2)c1
3. CC(=O)Nc1cccc(Nc2ncc(C(N)=O)c(NCc3cccc(F)c3)n2)c1
4. NC(=O)c1cnc(Nc2cccc(NC(=O)N3CCCC3)c2)cc1NCc1cccnc1
5. CC(=O)Nc1cccc(Nc2ncc(C(N)=O)c(N[C@H](CO)Cc3cnc[nH]3)n2)c1

1: 10 to 100 nM; 2: 100 to 1000 nM; 3: 1 to 10 nM; 4: 10 to 100 nM; 5: 10 to 100 nM

Hello, the source for this data is patent US8853230B2, in case you need it.
